Target: NAV1.5 (tetrodotoxin-resistant voltage-gated sodium channel) (Homo sapiens, UniProt Q14524)
Assay: cell-based
Where a name gives a salt, the structure may show the parent alone.
reported.metric: IC50

Recorded IC50 (molecule CN(C)CCc1ccn2ccccc12 [28-12 oxalate] ): > 30 µM

* * *

Biological target: UniProt:P41595
Sequence (P41595 whole entry): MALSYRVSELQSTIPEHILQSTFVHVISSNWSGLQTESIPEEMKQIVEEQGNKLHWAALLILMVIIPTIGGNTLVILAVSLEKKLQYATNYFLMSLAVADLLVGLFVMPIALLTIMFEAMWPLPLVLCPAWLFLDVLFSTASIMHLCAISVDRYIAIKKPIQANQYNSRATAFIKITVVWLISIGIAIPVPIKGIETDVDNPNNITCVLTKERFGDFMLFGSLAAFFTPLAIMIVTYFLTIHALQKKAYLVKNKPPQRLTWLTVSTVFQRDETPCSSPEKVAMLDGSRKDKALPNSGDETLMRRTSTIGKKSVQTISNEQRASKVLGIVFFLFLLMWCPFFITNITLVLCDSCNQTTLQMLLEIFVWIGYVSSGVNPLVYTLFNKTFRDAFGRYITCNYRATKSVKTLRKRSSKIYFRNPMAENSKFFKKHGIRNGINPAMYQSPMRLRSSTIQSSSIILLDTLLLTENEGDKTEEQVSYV
Assay: Calcium flux secondary messenger assay, agonist format
Assay type: cell-based
Conditions: read-out: EC50 (μM) Agonist/Opener
Where a name gives a salt, the structure may show the parent alone.
reported.metric: EC50

Recorded EC50 (molecule CN(C)CCc1ccn2ccccc12 [28-12 oxalate] ): > 30 µM

* * *

Target: CAV1.2 (Voltage-gated L-type calcium channel) (Homo sapiens)
Experiment: Ion channel assay, blocker format
Assay type: cell-based
Conditions: read-out: IC50 (μM) Antag./Blocker/Inhibitor
reported.metric: IC50 (µM)
Numbers only, in µM.

Recorded IC50 (compound COC(=O)C1=C(C)NC(C)=C(C(=O)OC(C)C)C1c1cccc2nonc12 (centres unmarked) [Isradipine, reference compound] ): 0.017

* * *

Molecular target: UniProtKB P25101
Sequence (P25101 21-427): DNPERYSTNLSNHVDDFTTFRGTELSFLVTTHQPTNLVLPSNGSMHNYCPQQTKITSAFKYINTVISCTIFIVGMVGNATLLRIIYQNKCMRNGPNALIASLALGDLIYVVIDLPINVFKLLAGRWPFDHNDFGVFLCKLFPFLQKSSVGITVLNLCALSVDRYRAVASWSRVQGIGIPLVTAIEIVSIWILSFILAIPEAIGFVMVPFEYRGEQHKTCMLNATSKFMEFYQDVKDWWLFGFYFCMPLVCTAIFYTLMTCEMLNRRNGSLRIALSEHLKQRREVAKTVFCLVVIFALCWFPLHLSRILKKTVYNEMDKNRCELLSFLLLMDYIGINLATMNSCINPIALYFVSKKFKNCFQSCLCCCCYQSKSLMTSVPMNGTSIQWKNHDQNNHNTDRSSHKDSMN
Experiment: Calcium flux secondary messenger assay, antagonist format
Type: cell-based
Conditions: read-out: IC50 (μM) Antag./Blocker/Inhibitor
Structures can show the parent of a compound that is named as a salt.
reported.metric: IC50

Recorded IC50 (compound CN(C)CCc1ccn2ccccc12 [28-12 oxalate] ): > 30 µM

* * *

Target: Nuclear Hormone Glucocorticoid Receptor (GR) (Homo sapiens, UniProt P04150)
Sequence (P04150 whole entry): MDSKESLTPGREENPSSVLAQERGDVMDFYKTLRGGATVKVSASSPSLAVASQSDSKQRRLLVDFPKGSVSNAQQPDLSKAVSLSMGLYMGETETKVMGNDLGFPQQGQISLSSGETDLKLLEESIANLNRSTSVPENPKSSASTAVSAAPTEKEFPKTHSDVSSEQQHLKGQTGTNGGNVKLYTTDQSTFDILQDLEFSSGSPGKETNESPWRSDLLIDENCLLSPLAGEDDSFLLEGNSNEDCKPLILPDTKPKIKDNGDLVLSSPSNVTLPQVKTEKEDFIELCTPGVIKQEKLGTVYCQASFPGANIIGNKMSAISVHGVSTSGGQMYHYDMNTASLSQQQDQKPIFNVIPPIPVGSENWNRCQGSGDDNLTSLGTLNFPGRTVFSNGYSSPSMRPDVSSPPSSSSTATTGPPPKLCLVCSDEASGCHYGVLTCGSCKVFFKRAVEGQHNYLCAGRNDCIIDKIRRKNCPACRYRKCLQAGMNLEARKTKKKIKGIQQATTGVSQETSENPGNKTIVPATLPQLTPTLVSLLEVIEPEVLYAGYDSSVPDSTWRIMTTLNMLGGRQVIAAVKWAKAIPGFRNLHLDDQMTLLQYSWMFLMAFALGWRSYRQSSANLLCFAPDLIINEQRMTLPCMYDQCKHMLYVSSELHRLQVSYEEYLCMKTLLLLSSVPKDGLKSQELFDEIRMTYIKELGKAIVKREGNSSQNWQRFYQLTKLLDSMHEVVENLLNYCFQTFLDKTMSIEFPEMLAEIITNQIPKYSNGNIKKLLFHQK
Assay: NHR Protein Interaction assay, agonist format
Format: cell-based
Details: read-out: EC50 (μM) Agonist/Opener
Structures can show the parent of a compound that is named as a salt.
reported.metric: EC50

Recorded EC50 (compound CN(C)CCc1ccn2ccccc12 [28-12 oxalate] ): > 30 µM

* * *

Target: PDE4D2 (Homo sapiens)
Construct: purchased Signal Chem
Sequence (Q08499 303-809 limits assumed): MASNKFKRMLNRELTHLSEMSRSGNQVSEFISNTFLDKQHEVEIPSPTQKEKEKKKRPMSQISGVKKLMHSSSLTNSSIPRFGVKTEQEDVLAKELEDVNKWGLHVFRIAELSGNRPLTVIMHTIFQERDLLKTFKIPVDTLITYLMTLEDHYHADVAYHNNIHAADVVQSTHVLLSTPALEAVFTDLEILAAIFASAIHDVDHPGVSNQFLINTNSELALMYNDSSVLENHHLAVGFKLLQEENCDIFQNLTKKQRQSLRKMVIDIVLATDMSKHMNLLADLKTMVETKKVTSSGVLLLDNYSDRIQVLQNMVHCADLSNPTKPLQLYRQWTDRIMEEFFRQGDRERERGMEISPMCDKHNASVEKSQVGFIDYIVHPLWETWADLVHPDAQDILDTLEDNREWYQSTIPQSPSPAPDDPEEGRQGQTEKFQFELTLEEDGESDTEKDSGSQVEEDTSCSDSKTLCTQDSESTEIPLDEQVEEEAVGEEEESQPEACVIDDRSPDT
Experiment: Enzymatic assay PDE4D2
Type: biochemical
Settings: inhibitor, read-out: IC50 (μM) Antag./Blocker/Inhibitor
Structures can show the parent of a compound that is named as a salt.
reported.metric: IC50

Recorded IC50 (compound CN(C)CCc1ccn2ccccc12 [28-12 oxalate] ): > 30 µM

* * *

Molecular target: Dopamine Receptor D2 (DRD2S) (Homo sapiens)
Sequence (P14416 1-414 isoform P14416-2): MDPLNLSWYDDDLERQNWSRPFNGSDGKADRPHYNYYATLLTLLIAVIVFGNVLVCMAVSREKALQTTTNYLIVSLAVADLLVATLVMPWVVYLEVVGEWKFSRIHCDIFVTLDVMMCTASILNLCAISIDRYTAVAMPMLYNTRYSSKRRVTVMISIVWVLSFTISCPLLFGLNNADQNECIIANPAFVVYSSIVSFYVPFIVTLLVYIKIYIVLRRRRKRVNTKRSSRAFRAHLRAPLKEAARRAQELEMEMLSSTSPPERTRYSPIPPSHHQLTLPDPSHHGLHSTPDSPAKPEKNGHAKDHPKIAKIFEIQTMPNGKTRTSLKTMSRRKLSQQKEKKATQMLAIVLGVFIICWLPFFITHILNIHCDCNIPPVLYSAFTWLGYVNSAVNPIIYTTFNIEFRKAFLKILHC
Experiment: cAMP secondary messenger assay, agonist format
Format: cell-based
Settings: read-out: EC50 (μM) Agonist/Opener
Structures can show the parent of a compound that is named as a salt.
reported.metric: EC50

Recorded EC50 (compound CN(C)CCc1ccn2ccccc12 [28-12 oxalate] ): > 30 µM

* * *

Molecular target: Muscarinic acetylcholine Receptor M2 (CHRM2) (Homo sapiens, UniProt P08172)
Sequence (P08172 whole entry): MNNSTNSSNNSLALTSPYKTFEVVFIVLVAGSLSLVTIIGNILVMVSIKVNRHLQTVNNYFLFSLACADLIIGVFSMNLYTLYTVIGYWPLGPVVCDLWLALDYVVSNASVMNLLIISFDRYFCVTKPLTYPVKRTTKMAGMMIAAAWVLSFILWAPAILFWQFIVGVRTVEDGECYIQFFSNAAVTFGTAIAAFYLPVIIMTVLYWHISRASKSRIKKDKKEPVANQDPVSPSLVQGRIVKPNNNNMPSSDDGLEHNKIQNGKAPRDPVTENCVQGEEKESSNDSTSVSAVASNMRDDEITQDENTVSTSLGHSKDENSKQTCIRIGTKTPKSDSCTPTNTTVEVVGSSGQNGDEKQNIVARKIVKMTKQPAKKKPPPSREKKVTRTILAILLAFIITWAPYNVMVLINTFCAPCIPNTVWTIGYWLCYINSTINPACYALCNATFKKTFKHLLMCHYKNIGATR
Assay: cAMP secondary messenger assay, antagonist format
Format: cell-based
Settings: read-out: IC50 (μM) Antag./Blocker/Inhibitor
Counter-ions that a name gives are not always drawn.
reported.metric: IC50

Recorded IC50 (compound CN(C)CCc1ccn2ccccc12 [28-12 oxalate] ): > 30 µM

* * *

Molecular target: dopamine transporter (Homo sapiens, UniProt Q01959)
Sequence (Q01959 whole entry): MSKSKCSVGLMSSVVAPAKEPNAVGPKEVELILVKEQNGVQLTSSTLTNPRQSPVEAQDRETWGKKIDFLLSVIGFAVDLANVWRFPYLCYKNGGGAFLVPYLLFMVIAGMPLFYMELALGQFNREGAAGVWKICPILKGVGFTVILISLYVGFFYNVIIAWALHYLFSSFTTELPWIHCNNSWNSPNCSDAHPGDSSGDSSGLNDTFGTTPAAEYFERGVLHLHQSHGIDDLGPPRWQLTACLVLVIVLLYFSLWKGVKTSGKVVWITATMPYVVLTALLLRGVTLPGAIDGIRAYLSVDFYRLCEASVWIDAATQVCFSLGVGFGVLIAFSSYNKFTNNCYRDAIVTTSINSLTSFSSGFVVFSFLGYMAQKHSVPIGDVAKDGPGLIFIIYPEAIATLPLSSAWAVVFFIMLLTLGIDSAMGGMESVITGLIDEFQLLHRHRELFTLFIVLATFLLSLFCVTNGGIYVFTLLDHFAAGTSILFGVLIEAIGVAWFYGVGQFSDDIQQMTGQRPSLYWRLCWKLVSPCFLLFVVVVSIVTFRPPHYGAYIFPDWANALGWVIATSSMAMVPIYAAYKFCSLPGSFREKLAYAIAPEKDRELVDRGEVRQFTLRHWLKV
Test: Monoamine transporter uptake assay (Neurotransmitter Transporter Uptake Assay Kit), blocker format
pIC50: −log10 of the molar value. Counter-ions that a name gives are not always drawn.
reported.metric: pIC50

Recorded pIC50 (compound CN(C)CCc1ccn2ccccc12 [28-12 oxalate] ): < 4.52

* * *

Target: Nicotinic acetylcholine Receptor α4 β2 (nAChR(a4/b2)) (Homo sapiens, UniProt P17787+P43681)
Sequence (P43681 29-627 limits assumed): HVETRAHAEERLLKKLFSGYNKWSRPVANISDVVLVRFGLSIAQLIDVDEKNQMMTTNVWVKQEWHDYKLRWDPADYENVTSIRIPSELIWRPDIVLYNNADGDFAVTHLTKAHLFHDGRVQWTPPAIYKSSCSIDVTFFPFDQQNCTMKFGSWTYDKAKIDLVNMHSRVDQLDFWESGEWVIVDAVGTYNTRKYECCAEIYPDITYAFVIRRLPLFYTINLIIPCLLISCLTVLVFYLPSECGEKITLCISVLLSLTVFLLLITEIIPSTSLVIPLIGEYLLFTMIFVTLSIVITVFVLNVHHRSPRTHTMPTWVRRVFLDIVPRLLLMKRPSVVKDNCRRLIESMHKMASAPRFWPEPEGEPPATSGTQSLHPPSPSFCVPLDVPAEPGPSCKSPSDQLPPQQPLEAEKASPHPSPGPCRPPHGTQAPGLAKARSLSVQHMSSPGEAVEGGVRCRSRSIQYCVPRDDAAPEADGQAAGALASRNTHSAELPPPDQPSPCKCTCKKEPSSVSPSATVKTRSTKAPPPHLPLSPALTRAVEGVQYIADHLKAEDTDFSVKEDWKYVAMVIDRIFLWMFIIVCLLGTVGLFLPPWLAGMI
Sequence (P17787 26-502): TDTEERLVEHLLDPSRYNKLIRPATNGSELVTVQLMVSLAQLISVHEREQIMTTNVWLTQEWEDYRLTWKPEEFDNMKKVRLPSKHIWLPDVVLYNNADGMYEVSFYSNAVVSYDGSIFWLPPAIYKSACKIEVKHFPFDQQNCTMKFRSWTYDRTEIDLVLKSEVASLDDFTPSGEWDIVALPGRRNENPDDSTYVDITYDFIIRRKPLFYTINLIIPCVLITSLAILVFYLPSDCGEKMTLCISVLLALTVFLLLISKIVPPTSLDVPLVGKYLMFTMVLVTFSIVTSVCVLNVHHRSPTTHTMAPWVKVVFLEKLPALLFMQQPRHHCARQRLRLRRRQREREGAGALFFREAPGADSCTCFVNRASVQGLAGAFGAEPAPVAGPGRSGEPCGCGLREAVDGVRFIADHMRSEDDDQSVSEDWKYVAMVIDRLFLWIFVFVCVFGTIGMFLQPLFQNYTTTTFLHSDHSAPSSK
Experiment: Ion channel assay, opener format
Format: cell-based
Settings: read-out: EC50 (μM) Agonist/Opener
Structures can show the parent of a compound that is named as a salt.
reported.metric: EC50

Recorded EC50 (compound CN(C)CCc1ccn2ccccc12 [28-12 oxalate] ): > 30 µM
